Reference for the values: patent US12358893B2

# assayed-system: recombinant human CYP11B1 (Homo sapiens, UniProt P15538)
# Construct: enzyme-enriched microsomal fraction of the lysate
# Sequence (P15538 25-503): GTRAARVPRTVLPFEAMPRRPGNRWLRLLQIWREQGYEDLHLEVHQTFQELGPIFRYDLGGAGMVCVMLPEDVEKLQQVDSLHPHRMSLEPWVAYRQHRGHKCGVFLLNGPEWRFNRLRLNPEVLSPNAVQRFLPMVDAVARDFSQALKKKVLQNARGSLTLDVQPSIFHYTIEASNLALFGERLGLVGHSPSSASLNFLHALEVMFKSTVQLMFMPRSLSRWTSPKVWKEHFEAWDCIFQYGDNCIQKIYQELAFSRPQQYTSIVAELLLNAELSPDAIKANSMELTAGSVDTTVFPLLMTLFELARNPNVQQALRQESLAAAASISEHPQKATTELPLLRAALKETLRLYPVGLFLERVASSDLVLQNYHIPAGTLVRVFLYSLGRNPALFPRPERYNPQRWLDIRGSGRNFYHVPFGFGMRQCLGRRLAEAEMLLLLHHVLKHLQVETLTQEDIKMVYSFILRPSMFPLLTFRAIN
# procedure-details: CYP11B1 enzyme assay with enzyme enriched microsomes, cortisol measured by LC-MS
# condition-parameters: microsomes from V79-4 cells; 11-deoxycortisol at Km; read-out: hCYP11B1 IC50
property-name: IC50

In the examples that follow, each entry is paired with its recorded IC50.
Fc1cc2nc(-n3cnc4ncccc43)n(C3CC3)c2cc1F : > 10 µM
CCn1c(-n2cnc3cc(F)c(F)cc32)nc2ccc(C#N)cc21 : 1 to 10 µM
COc1cc2ncn(-c3nc4ccc(F)cc4n3C3CC3)c2cc1OC : 1 to 10 µM

## Task Dear colleague, I am looking for the recorded IC50 of the following molecule: Fc1ccc2nc(-n3cnc4ccc(C(F)(F)F)cc43)n(C3CC3)c2c1
## Result 1 to 10 µM

## Task Likewise for Fc1cc2nc(-n3cnc4cnccc43)n(C3CC3)c2cc1F ?
## Result 1 to 10 µM

## Task Likewise for N#Cc1ccc2nc(-n3cnc4cnccc43)n(C3CC3)c2c1 ?
## Result > 10 µM

## Task Likewise for N#Cc1ccc2ncn(-c3nc4cc(F)c(F)cc4n3C3CC3)c2c1 ?
## Result > 10 µM

## Task Likewise for O=C(O)c1ccc2c(c1)ncn2-c1nc2cc(F)c(F)cc2n1C1CC1 ?
## Result > 10 µM

## Task Likewise for Fc1ccc2nc(-n3cnc4cc(F)c(F)cc43)n(C3CC3)c2c1 ?
## Result 1 to 10 µM
